# ASSAYED SYSTEM: Guanidinoacetate N-methyltransferase (Homo sapiens)
# PROTOCOL DETAILS: Confirmatory Screen for Target Class Profiling of Small Molecule Inhibitors of Methyltransferases (AID 1745852); further: on the % scale 0 is the no-effect control and ±100 the full control effect
# MEASUREMENT PARAMETERS: MTase-Glo luminescence, SAH detection, recombinant enzyme; at 57.3 µM (top of the series) unless noted
REPORTED ENDPOINT: activity change, negative = inhibition (% [at 85.7 µM])
Write the value in % [at 85.7 µM] as a bare number.

Use these answered entries as a reference point.
Would you kindly share the measured activity change, negative = inhibition for `CN(C)CCNC(=O)c1ccnc(-c2nnc3ccc(N(C)c4ccccc4)nn23)c1` ?
-11.8

And the next one, `Cc1noc2c(NC3CCN(C)CC3)cc(-c3cccs3)nc12` ?
13.7

And the next one, CN(C)CCOCC1(C)COc2ccc(C(=O)Nc3ccc4[nH]ccc4c3)cc2N1 (stereo not given) ?
9.89

Further cases:
Would you kindly share the measured activity change, negative = inhibition for `COc1ncccc1-c1nccn2c(C3CN(Cc4ccccc4O)C3)ncc12` ?
2.06
